Hi there, I'd appreciate the recorded kdis for every entry that follows.
Molecular target: T1, human SIRPγ-His monomer protein (human, UniProt Q9P1W8 29-360)
T1 construct: also called hSIRPγ
T1 sequence (Q9P1W8 29-360 limits assumed): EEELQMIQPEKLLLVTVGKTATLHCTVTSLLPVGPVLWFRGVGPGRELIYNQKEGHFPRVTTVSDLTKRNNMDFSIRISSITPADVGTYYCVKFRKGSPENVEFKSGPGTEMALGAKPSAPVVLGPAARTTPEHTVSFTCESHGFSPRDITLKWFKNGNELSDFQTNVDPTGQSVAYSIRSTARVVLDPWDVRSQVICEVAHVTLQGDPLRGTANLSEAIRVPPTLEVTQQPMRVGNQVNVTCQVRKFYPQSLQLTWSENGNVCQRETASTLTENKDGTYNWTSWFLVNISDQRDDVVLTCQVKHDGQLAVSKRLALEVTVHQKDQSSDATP
Assay: BLI Octet, V5-scFv PPE captured, SIRP-His 500 nM

[Q] Tell me the measured kdis of Antibody 51 (scFv, V domains shown, scFv in crude PPE, V5/myc-tagged) VH: QVQLVQSGAEVKKPGASVKVSCKASGYTFTRYDINWVRQAPGQGLEWMGWMNPNSGNTGYAQKLQGRVTMTRDTSTSTVYMELSSLRSEDTAVYYCARERVGYCSSTSCLHPLDYWGQGTLVTVSS VL: DIQMTQSPSSLSASVGDRVTITCRASQGIRNDLGWYQQKPGKAPKLLIYSASNLQSGVPSRFSGSGSGTDFTLTISSLQPEDFATYYCQQSYDVPLTFGGGTKVEIK , please.
[A] 0.001 to 0.01 s⁻¹

[Q] Tell me the measured kdis of Antibody 32 (scFv, V domains shown, scFv in crude PPE, V5/myc-tagged) VH: QVQLVQSGAEVKKPGASVKVSCKASGYTFTSYYMYWVRQAPGQGLEWMGWINPNSGNTGYAQKFQGRVTMTRDTSTSTVYMELSSLRSEDTAVYYCAKDRRRGVGLAAAGTSAFDIWGQGTMVTVSS VL: DIQMTQSPSSLSASVGDRVTITCRASQSISNWLAWYQQKPGKAPKLLIYAASSLQSGVPSRFSGSGSGTDFTLTISSLQPEDFATYYCQQSYSTPYTFGQGTKLEIK , please.
[A] < 0.001 s⁻¹

[Q] Tell me the measured kdis of Antibody 19 (scFv, V domains shown, scFv in crude PPE, V5/myc-tagged) VH: QVQLVQSGAEVKKPGASVKVSCKASGYTFTAYYMHWVRQAPGQGLEWMGIINPSGGSTSYAQKFQGRVTMTRDTSTSTVYMELSSLRSEDTAVYYCARDSGWYAPGYYYGMDVWGQGTTVTVSS VL: DIQMTQSPSSLSASVGDRVTITCRASESISHWLAWYQQKPGKAPKLLIYGASTLQSGVPSRFSGSGSGTDFTLTISSLQPEDFATYYCQQSYTPPLTFGGGTKVEIK , please.
[A] < 0.001 s⁻¹
